assay: IV bolus PK of NPT-2042 in rat; type: in vivo; details: plasma; NPT-2042, rat, IV bolus 10 mg/kg
VALUE TYPE: Cmax (ng/mL)
Kindly answer with a numeric value in ng/mL, unit omitted.

Prompt: Look up Cmax for this compound: CCCCNc1cc(C(=O)N(Cc2ccccc2)Cc2ccccc2)cc(S(N)(=O)=O)c1Oc1ccccc1
Completion: 2510

----------
experiment: Oral dose PK of NPT2042 in dog (AUC for absolute bioavailability); format: in vivo; settings: dog, in vivo, po, 30 mg/kg, NPT2042, dog, oral 30 mg/kg; animals D0001, D0601, Mean; read-out: t½ (converted)
VALUE TYPE: half-life (h)
Kindly answer with a numeric value in h, unit omitted.

Prompt: Look up half-life for this compound: CCCCNc1cc(C(=O)N(Cc2ccccc2)Cc2ccccc2)cc(S(N)(=O)=O)c1Oc1ccccc1
Completion: 3.61

Ref: patent US20230293469A1
